# ASSAY_SYSTEM: Ba/F3 (EML4-ALK/C1156Y) (Homo sapiens, UniProt Q9UM73, C1156Y, cells depend on it)
# Construct: Q9HC35 (Echinoderm microtubule-associated protein-like 4)
# Sequence (Q9UM73 whole entry C1156Y): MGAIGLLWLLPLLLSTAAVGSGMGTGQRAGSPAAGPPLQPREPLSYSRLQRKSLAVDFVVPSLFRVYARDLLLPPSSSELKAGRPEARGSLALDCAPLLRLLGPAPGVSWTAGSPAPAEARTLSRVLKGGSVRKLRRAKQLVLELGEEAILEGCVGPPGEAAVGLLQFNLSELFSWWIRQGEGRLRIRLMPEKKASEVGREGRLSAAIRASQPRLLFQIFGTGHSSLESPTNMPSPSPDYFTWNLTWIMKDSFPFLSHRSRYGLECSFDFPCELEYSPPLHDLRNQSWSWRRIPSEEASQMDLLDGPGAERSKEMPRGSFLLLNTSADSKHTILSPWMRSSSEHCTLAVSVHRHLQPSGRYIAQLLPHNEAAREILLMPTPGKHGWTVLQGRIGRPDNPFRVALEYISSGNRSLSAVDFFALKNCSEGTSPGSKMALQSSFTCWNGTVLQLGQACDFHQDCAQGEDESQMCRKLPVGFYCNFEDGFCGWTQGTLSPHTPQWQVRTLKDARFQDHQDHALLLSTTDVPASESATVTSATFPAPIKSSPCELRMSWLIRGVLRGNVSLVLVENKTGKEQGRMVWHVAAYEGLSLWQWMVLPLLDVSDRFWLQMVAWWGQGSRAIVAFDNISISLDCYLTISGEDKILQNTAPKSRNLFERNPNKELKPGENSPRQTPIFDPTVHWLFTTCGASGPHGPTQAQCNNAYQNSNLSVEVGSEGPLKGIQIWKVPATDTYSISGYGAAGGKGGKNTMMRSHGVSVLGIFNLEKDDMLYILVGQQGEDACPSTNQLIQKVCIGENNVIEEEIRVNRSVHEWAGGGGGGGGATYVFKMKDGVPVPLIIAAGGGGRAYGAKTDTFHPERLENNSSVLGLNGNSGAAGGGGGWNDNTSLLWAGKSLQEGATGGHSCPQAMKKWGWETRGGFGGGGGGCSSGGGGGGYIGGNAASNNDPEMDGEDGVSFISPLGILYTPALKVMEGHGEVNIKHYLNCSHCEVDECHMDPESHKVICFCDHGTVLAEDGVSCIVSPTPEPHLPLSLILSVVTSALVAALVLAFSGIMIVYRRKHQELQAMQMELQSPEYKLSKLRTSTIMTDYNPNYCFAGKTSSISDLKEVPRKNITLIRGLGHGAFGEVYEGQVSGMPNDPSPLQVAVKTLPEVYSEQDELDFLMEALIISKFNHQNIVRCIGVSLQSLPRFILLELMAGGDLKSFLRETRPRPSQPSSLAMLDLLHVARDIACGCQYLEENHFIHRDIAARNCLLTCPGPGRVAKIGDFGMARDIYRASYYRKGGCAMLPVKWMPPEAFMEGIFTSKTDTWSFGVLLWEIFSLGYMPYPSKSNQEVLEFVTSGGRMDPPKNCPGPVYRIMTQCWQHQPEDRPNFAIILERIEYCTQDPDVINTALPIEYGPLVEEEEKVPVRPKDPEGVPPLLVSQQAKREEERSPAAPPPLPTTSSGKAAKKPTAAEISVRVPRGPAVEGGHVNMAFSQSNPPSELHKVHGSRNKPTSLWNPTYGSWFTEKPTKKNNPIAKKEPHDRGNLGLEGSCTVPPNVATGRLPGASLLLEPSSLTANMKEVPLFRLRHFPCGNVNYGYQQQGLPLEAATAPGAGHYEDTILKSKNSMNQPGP
# TEST_DETAILS: Growth inhibition IC50 in Ba/F3 cells expressing EML4-ALK C1156Y
# Format: cell-based
// GI50 lookup, one value per entry
The reply should be a number in nM, with the unit left off.

# COMPOUND, UNIT_ABBREV, EXPERIMENTAL_RESULT
measured = [
    ("COc1cc(N2CCC(N3CCN(C)CC3)CC2)ccc1Nc1ncc(Cl)c(Nc2ccccc2P(C)(C)=O)n1 [Brigatinib, reference compound]", "nM", 36.8),
    ("COc1cc(N2CCC(N3CCN(C(=O)CCCCCCNc4cccc5c4C(=O)N(C4CCC(=O)NC4=O)C5=O)CC3)CC2)ccc1Nc1ncc(Cl)c(Nc2ccccc2P(C)(C)=O)n1 (stereo not drawn)", "nM", 47.5),
    ("COc1cc(N2CCC(N3CCN(C(=O)CNc4cccc5c4C(=O)N(C4CCC(=O)NC4=O)C5=O)CC3)CC2)ccc1Nc1ncc(Cl)c(Nc2ccccc2P(C)(C)=O)n1 (stereo not drawn)", "nM", 42.7),
    ("COc1cc(N2CCC(NC(=O)CCCNc3cccc4c3C(=O)N(C3CCC(=O)NC3=O)C4=O)CC2)ccc1Nc1ncc(Cl)c(Nc2ccccc2P(C)(C)=O)n1 (stereo not drawn)", "nM", 129),
    ("COc1cc(N2CCC(N3CCN(C(=O)CCOCCOCCNc4cccc5c4C(=O)N(C4CCC(=O)NC4=O)C5=O)CC3)CC2)ccc1Nc1ncc(Cl)c(Nc2ccccc2P(C)(C)=O)n1 (stereo not drawn)", "nM", 243),
]

We next turn to a different compound, shown below.
Data request: # GI50 lookup, item COc1cc(N2CCC(NC(=O)CCCCCCCCCC(=O)N[C@H](C(=O)N3C[C@H](O)C[C@H]3C(=O)NCc3ccc(-c4scnc4C)cc3)C(C)(C)C)CC2)ccc1Nc1ncc(Cl)c(Nc2ccccc2P(C)(C)=O)n1
Data returned: 120
